Data origin: the supplement of paper PMC10724198

test system: Saccharomyces cerevisiae; assay: protein stability index of tFT-peptide fusion (C-terminal peptide) (PSI (0-1 scale)); higher = more stable (slower turnover); settings: genetic background: wild type; temperature: 30 C;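 also: PSI is a weighted mean of sequencing reads over stability bins, variants kept only with over 10 reads, mCherry proximal and sfGFP distal, peptide attached via GGGS linker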
Binned protein stability index; ranges: lower bin = under 0.6, middle bin = from 0.6 up to 0.7, upper bin = 0.7 and over

Form field 'band' for "VYGVVVWLFGFL"
middle bin

Form field 'band' for "FPFDMTSTEMSL"
middle bin

Form field 'band' for "LRLCMVFAWFLT"
lower bin

Form field 'band' for "PLPPPPPARLVP"
middle bin

Form field 'band' for "RCSFSYLPVIQV"
lower bin

Form field 'band' for "GHVPIWPFLSLS"
middle bin

Form field 'band' for "PALPQPMNPAPP"
upper bin

Form field 'band' for "FSTIWDRLLLTG"
middle bin

Form field 'band' for "LLKNPFRGTSVF"
upper bin

Form field 'band' for "FPSFSLIFFSLI"
lower bin

Form field 'band' for "GGGGAGGGGGRV"
middle bin

Form field 'band' for "GPPTASPLVAPA"
middle bin

Form field 'band' for "PPPLLPPRPLAP"
upper bin

Form field 'band' for "TLARLISGKRLL"
middle bin

Form field 'band' for "LPSLPPPPPPPP"
lower bin

Form field 'band' for "LSWLSLSSNSRL"
upper bin

Form field 'band' for "PPPPLPPSPCSL"
lower bin

Form field 'band' for "RVVNRWGVCFLG"
lower bin

Form field 'band' for "NTTCGVEQKEDK"
middle bin

Form field 'band' for "ELVYVFLGNLPP"
middle bin

Form field 'band' for "SAIGVGGVGTGG"
middle bin

Form field 'band' for "APPTPPHPRPSS"
upper bin

Form field 'band' for "FFGFLLFCSRFS"
lower bin

* * *

Hi there, I'd appreciate the recorded protein stability index for every entry that follows.
system: Saccharomyces cerevisiae; experiment: protein stability index of tFT-peptide fusion (C-terminal peptide) (PSI (0-1 scale)); higher = more stable (slower turnover); conditions: genetic background: cdc53-1; temperature: 37 C

Value wanted: protein stability index (Saccharomyces cerevisiae) of entry "YYQVSQKIQRKQ"
0.708

Value wanted: protein stability index (Saccharomyces cerevisiae) of entry "ACIFDMMWFWLF"
0.721

Value wanted: protein stability index (Saccharomyces cerevisiae) of entry "RILKLPGHVNDV"
0.711

Value wanted: protein stability index (Saccharomyces cerevisiae) of entry "GFFLLSFLFFVR"
0.181

Value wanted: protein stability index (Saccharomyces cerevisiae) of entry "FVFAMSECIVLS"
0.318

Value wanted: protein stability index (Saccharomyces cerevisiae) of entry "APPPLFLIVLHL"
0.565

Value wanted: protein stability index (Saccharomyces cerevisiae) of entry "FLYSVLLICKFI"
0.258

Value wanted: protein stability index (Saccharomyces cerevisiae) of entry "VVGILVLASWDL"
0.321

Value wanted: protein stability index (Saccharomyces cerevisiae) of entry "HLILWLFFVIVF"
0.193

Value wanted: protein stability index (Saccharomyces cerevisiae) of entry "MSRALSVLVVVA"
0.211

Value wanted: protein stability index (Saccharomyces cerevisiae) of entry "RLPRILVLVCLF"
0.318

Value wanted: protein stability index (Saccharomyces cerevisiae) of entry "PSPPPYAPPIPA"
0.611

Value wanted: protein stability index (Saccharomyces cerevisiae) of entry "CFFILSLMVVVI"
0.16

Value wanted: protein stability index (Saccharomyces cerevisiae) of entry "LFLIYCFAFSIG"
0.328

Value wanted: protein stability index (Saccharomyces cerevisiae) of entry "LLCLLLVPQPHR"
0.66

Value wanted: protein stability index (Saccharomyces cerevisiae) of entry "IEVACLLTAFCD"
0.262

Value wanted: protein stability index (Saccharomyces cerevisiae) of entry "LLFCFSVILFTC"
0.189

Value wanted: protein stability index (Saccharomyces cerevisiae) of entry "SVPIAFYLLFFQ"
0.605

Value wanted: protein stability index (Saccharomyces cerevisiae) of entry "CFFICGVFVFLM"
0.338

Value wanted: protein stability index (Saccharomyces cerevisiae) of entry "LKTKKKKTNTQK"
0.633

Value wanted: protein stability index (Saccharomyces cerevisiae) of entry "IRWCLVSVFYVV"
0.364

Value wanted: protein stability index (Saccharomyces cerevisiae) of entry "AFFGIYLICFIV"
0.204

Value wanted: protein stability index (Saccharomyces cerevisiae) of entry "VIFFEFFLSFGE"
0.481

Value wanted: protein stability index (Saccharomyces cerevisiae) of entry "RVWTTVFIIRAT"
0.609

Value wanted: protein stability index (Saccharomyces cerevisiae) of entry "VFLLLSLSVFFE"
0.0844

Value wanted: protein stability index (Saccharomyces cerevisiae) of entry "VISVFAISTRVD"
0.49

Value wanted: protein stability index (Saccharomyces cerevisiae) of entry "LMLISFLFLSLL"
0.461

Value wanted: protein stability index (Saccharomyces cerevisiae) of entry "SFSFRPCLLLFF"
0.355

Value wanted: protein stability index (Saccharomyces cerevisiae) of entry "RGPAYATCHLLC"
0.732

Value wanted: protein stability index (Saccharomyces cerevisiae) of entry "SRLMLPLSPLVC"
0.455

Value wanted: protein stability index (Saccharomyces cerevisiae) of entry "LSGVLFSLIRFY"
0.636

Value wanted: protein stability index (Saccharomyces cerevisiae) of entry "ILVFHFWPFLVR"
0.435

Value wanted: protein stability index (Saccharomyces cerevisiae) of entry "FKWVSRIRLLDA"
0.566

Value wanted: protein stability index (Saccharomyces cerevisiae) of entry "LLSPFLLMLLFL"
0.395

Value wanted: protein stability index (Saccharomyces cerevisiae) of entry "WLLSFLRFLVLR"
0.0923

Value wanted: protein stability index (Saccharomyces cerevisiae) of entry "VVLWTFLLEVSA"
0.0344

Value wanted: protein stability index (Saccharomyces cerevisiae) of entry "ELNERRKRLVTN"
0.737

Value wanted: protein stability index (Saccharomyces cerevisiae) of entry "LLRFFPLLLFSF"
0.114

Value wanted: protein stability index (Saccharomyces cerevisiae) of entry "FFMLWCRVLLRL"
0.102

Value wanted: protein stability index (Saccharomyces cerevisiae) of entry "VSLSEVAIIVHG"
0.611

Value wanted: protein stability index (Saccharomyces cerevisiae) of entry "GVAILFTFFRLL"
0.526

Value wanted: protein stability index (Saccharomyces cerevisiae) of entry "PPPLPFPTPPPS"
0.764

Value wanted: protein stability index (Saccharomyces cerevisiae) of entry "FLGPMRVLVSSV"
0.606

Value wanted: protein stability index (Saccharomyces cerevisiae) of entry "WKNIHGVFVFVM"
0.48

Value wanted: protein stability index (Saccharomyces cerevisiae) of entry "RYLHFASLLFAS"
0.709

Value wanted: protein stability index (Saccharomyces cerevisiae) of entry "GWRFCVFIYVHR"
0.0688

Value wanted: protein stability index (Saccharomyces cerevisiae) of entry "RCTLFVNPVCVH"
0.304

Value wanted: protein stability index (Saccharomyces cerevisiae) of entry "LASSCYRHLLVV"
0.323

Value wanted: protein stability index (Saccharomyces cerevisiae) of entry "NMVSMVVVIFGV"
0.37

Value wanted: protein stability index (Saccharomyces cerevisiae) of entry "SFYVCVPVLWLV"
0.29

Value wanted: protein stability index (Saccharomyces cerevisiae) of entry "APTMAIIVVHVR"
0.291

Value wanted: protein stability index (Saccharomyces cerevisiae) of entry "SRVCVLTGISCA"
0.606

Value wanted: protein stability index (Saccharomyces cerevisiae) of entry "WVCCFVWGCLIR"
0.187

Value wanted: protein stability index (Saccharomyces cerevisiae) of entry "GLLLLGIRLKWG"
0.274

Value wanted: protein stability index (Saccharomyces cerevisiae) of entry "SVLCLFSRLRSV"
0.731

Value wanted: protein stability index (Saccharomyces cerevisiae) of entry "SFLCILIFPFFP"
0.6

Value wanted: protein stability index (Saccharomyces cerevisiae) of entry "CVFGFACRVLVV"
0.326

Value wanted: protein stability index (Saccharomyces cerevisiae) of entry "SLCSSVQVWSVV"
0.763

Value wanted: protein stability index (Saccharomyces cerevisiae) of entry "VFFVLAVVGADA"
0.461

Value wanted: protein stability index (Saccharomyces cerevisiae) of entry "RLPSSNVRYWVS"
0.729

Value wanted: protein stability index (Saccharomyces cerevisiae) of entry "GLYFFVVRIFKV"
0.345

Value wanted: protein stability index (Saccharomyces cerevisiae) of entry "NCVDRFKGQKRM"
0.723

Value wanted: protein stability index (Saccharomyces cerevisiae) of entry "RGFIFFALWSFC"
0.544

Value wanted: protein stability index (Saccharomyces cerevisiae) of entry "GLVVVVRLQYSP"
0.424

Value wanted: protein stability index (Saccharomyces cerevisiae) of entry "LRVVVGLCMCVL"
0.503
